system: HCC1569; assay: cell number relative to DMSO (% of DMSO); higher = more cells (less growth inhibition / toxicity); conditions: concentration: 10 µM; 24 h;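 further: TDF denotes transformed human dermal fibroblasts of mesenchymal origin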
Rule: met for cell number not less than 100, not met for anything less.

| molecule | answer_label |
| --- | --- |
| CN(C)S(=O)(=O)c1ccc2c(c1)C(=Cc1cc3c([nH]1)CCCC3)C(=O)N2 | not met |
| COc1ccnc(CS(=O)c2nc3cc(OC(F)F)ccc3[n-]2)c1OC.O.[Na+] (configuration not stated) | met |
| CN(C)CCCN1c2ccccc2CCc2ccc(Cl)cc21.Cl [Clomipramine hydrochloride] | not met |
| Cc1cc2c(s1)=Nc1ccccc1NC=2N1CCN(C)CC1 [Olanzapine] | met |

Measured values drawn from the supplement of paper PMC7156485 for this set.
